Test system: SNB-75 CNS
Test: NCI-60 one-dose screen, 48 h (100 = growth as untreated, 0 = no growth, -100 = all killed)
Details: 10 µM unless noted
Method: Growth inhibition of the SNB-75 human tumor cell line is measured as a screen for anti-cancer activity. Cells are grown in 96 well plates and exposed to the test compound for 48 hours. Compounds are tested at a single concentration, which is 10^-5 M for most compounds. The reported endpoint is percent growth (GI% or GIPRCNT), where numbers from 0 - 100% represent growth inhibition, and numbers from -100% - 0 represent cell death. For example, a value of 40 represents 60% growth inhibition. […]
This is part of a sample that, as a whole, favours compounds with a hit. Of some 83,000 tested, about 20% had one in any assay.
Outcome: t for growth of at least 40%; f for anything lower.

Examples from the recorded data:
compound=COc1ccc(-c2cn3c(C(=O)Nc4ccccc4Cl)c(-c4ccccc4)c4c3n2CCCC4)cc1 class=t
compound=COc1cc(C(=O)Nc2ccc(-c3nc4ccccc4[nH]3)cc2)cc(OC)c1OC class=t
compound=CCOC(=O)C(CC(=O)O)=C(C(=O)OCC)C(=O)OCC class=t
compound=COc1ccc(Br)c(/C=C2\SC(=Nc3ccc(O)cc3)NC2=O)c1 class=t
compound=O=C1/C(=C/c2ccc(O)cc2)COc2ccc(O)cc21 class=t
compound=O=C(Nc1ccc(Cl)cc1F)c1cc(I)ccc1O class=f
compound="O=C(c1nc2ccccc2[nH]1)C1C(c2cccc([N+](=O)[O-])c2)C2CC3CCCCC3N2[C@@]12C(=O)Nc1cc(Cl)ccc12 (stereo not given in full)" class=f
compound=CCOC(=O)c1cc2c(n1Cc1ccccc1)-c1oncc1CCC2 class=t
compound=COC(=O)[C@H]1CCCN1C(=O)[C@H]1CCCN1C(=O)[C@H](Cc1c[nH]c2ccccc12)NC(=S)Nc1cc(C(F)(F)F)cc(C(F)(F)F)c1 class=t
compound=COc1cc(/C=C2\CCC/C(=C\c3cc(CN4CCOCC4)c(O)c(OC)c3)C2=O)cc(CN2CCOCC2)c1O class=f

Please indicate if the recorded growth for CC(C)CCNCC(O)Cn1c2ccccc2c2ccccc21 (stereo not given) meets or exceeds 40%.
f

Please indicate if the recorded growth for `COc1cccc(-c2nn(C)c3sc(C(=O)NCCN4CCN(c5ccccc5F)CC4)cc23)c1` meets or exceeds 40%.
t

Please indicate if the recorded growth for `O=C(/C=C/c1cccc(Cl)c1)OCc1ccc2cc1OCC#C/C=C\C#CCO2` meets or exceeds 40%.
t

Please indicate if the recorded growth for `Clc1ccc(COc2ccc(Nc3ncnc4onc(-c5ccccc5)c34)cc2)cc1` meets or exceeds 40%.
t

Please indicate if the recorded growth for `CCOC(=O)c1cc2c(n1Cc1cc(OC)c(OC)c(OC)c1)-c1oncc1CCC2` meets or exceeds 40%.
f
